The reader will find reported DC50 values listed item by item below.
# measured.on: Protein cereblon/CREB-binding protein (Homo sapiens, UniProt Q92793+Q96SW2)
# run.description: PROTAC activity at CBP/CRBN in human VCaP cells assessed as protein degradation incubated for 4 hrs by Western blot analysis
# Format: cell-based

Complete the entry with DC50 for CC(=O)N1CCc2c(c(N3CCCc4cc(-c5cnn(C)c5)c(C(F)F)cc43)nn2C2CCN(C(=O)c3cccc4c3C(=O)N(C3CCC(=O)NC3=O)C4=O)CC2)C1 (centres undefined)
> 1000 nM

Give the measured DC50 for CC(=O)N1CCc2c(c(N3CCCc4cc(-c5cnn(C)c5)c(C(F)F)cc43)nn2C2CCN(C(=O)CCCCNc3cccc4c3C(=O)N(C3CCC(=O)NC3=O)C4=O)CC2)C1 (centres undefined)
0.4 nM

Report measured DC50; entry is CC(=O)N1CCc2c(c(N3CCCc4cc(-c5cnn(C)c5)c(C(F)F)cc43)nn2C2CCN(CC3CN(c4ccc5c(c4)C(=O)N(C4CCC(=O)NC4=O)C5=O)C3)CC2)C1 (centres undefined)
1.1 nM

Give the reported value of DC50 for this record: CC(=O)N1CCc2c(c(N3CCCc4cc(-c5cnn(C)c5)c(C(F)F)cc43)nn2C2CCN(C(=O)CCCNc3cccc4c3C(=O)N(C3CCC(=O)NC3=O)C4=O)CC2)C1 (centres undefined)
1.4 nM

###

// Emax lookup, one value per entry
# measured.on: Protein cereblon/Histone acetyltransferase p300 (Homo sapiens, UniProt Q09472+Q96SW2)
# run.description: PROTAC activity at p300/CRBN in human VCaP cells assessed as maximal protein degradation at 1 uM incubated for 4 hrs by Western blot analysis relative to control
# Type: cell-based

// below: answered compounds
compound: CC(=O)N1CCc2c(c(N3CCCc4cc(-c5cnn(C)c5)c(C(F)F)cc43)nn2[C@H]2CC[C@H](CN3CCN(c4cc5c(cc4F)C(=O)N(C4CCC(=O)NC4=O)C5=O)CC3)CC2)C1 (some centres undefined)
Emax: 94%
//
compound: CC(=O)N1CCc2c(c(N3CCCc4cc(-c5cnn(C)c5)c(C(F)F)cc43)nn2C2CCN(C3CC4(C3)CN(c3ccc5c(c3)C(=O)N(C3CCC(=O)NC3=O)C5=O)C4)CC2)C1 (centres undefined)
Emax: > 95%
//
compound: CC(=O)N1CCc2c(c(N3CCCc4cc(-c5cnn(C)c5)c(C(F)F)cc43)nn2[C@H]2CC[C@H](CN3CCN(c4ccc5c(c4)C(=O)N(C4CCC(=O)NC4=O)C5=O)CC3)CC2)C1 (some centres undefined)
Emax: > 95%
//
compound: CC(=O)N1CCc2c(c(N3CCCc4cc(-c5cnn(C)c5)c(C(F)F)cc43)nn2C2CCN(C(=O)CCCCNc3ccc4c(c3)C(=O)N(C3CCC(=O)NC3=O)C4=O)CC2)C1 (centres undefined)
Emax: > 95%
//
compound: CC(=O)N1CCc2c(c(N3CCCc4cc(-c5cnn(C)c5)c(C(F)F)cc43)nn2C2CCN(C(=O)c3cccc4c3C(=O)N(C3CCC(=O)NC3=O)C4=O)CC2)C1 (centres undefined)
Emax: < 50%
//
compound: CC(=O)N1CCc2c(c(N3CCCc4cc(-c5cnn(C)c5)c(C(F)F)cc43)nn2C2CCN(C(=O)c3ccc4c(c3)C(=O)N(C3CCC(=O)NC3=O)C4=O)CC2)C1 (centres undefined)
Emax: < 50%
//
compound: CC(=O)N1CCc2c(c(N3CCCc4cc(-c5cnn(C)c5)c(C(F)F)cc43)nn2C2CCN(C(=O)CCNc3cccc4c3C(=O)N(C3CCC(=O)NC3=O)C4=O)CC2)C1 (centres undefined)
Emax: 81%
//
compound: CC(=O)N1CCc2c(c(N3CCCc4cc(-c5cnn(C)c5)c(C(F)F)cc43)nn2[C@H]2CC[C@H](CN3CCN(c4ccc5c(c4)CN(C4CCC(=O)NC4=O)C5=O)CC3)CC2)C1 (some centres undefined)
Emax: > 95%
//
compound: CC(=O)N1CCc2c(c(N3CCCc4cc(-c5cnn(C)c5)c(C(F)F)cc43)nn2C2CCN(C(=O)CCCCNc3cccc4c3C(=O)N(C3CCC(=O)NC3=O)C4=O)CC2)C1 (centres undefined)
Emax: > 95%
//
compound: CC(=O)N1CCc2c(c(N3CCCc4cc(-c5cnn(C)c5)c(C(F)F)cc43)nn2C2CCN(C3CC4(CCN(c5ccc6c(c5)C(=O)N(C5CCC(=O)NC5=O)C6=O)CC4)C3)CC2)C1 (centres undefined)
Emax: > 95%

Quick one: give measured Emax for CC(=O)N1CCc2c(c(N3CCCc4cc(-c5cnn(C)c5)c(C(F)F)cc43)nn2C2CCN(C(=O)CCNc3ccc4c(c3)C(=O)N(C3CCC(=O)NC3=O)C4=O)CC2)C1 (centres undefined)
> 95%

Answer with the recorded Emax of CC(=O)N1CCc2c(c(N3CCCc4cc(-c5cnn(C)c5)c(C(F)F)cc43)nn2C2CCN(C(=O)CCCCCNc3cccc4c3C(=O)N(C3CCC(=O)NC3=O)C4=O)CC2)C1 (centres undefined) only.
> 95%

Provide only the value of recorded Emax for CC(=O)N1CCc2c(c(N3CCCc4cc(-c5cnn(C)c5)c(C(F)F)cc43)nn2C2CCN(C(=O)Nc3ccc4c(c3)C(=O)N(C3CCC(=O)NC3=O)C4=O)CC2)C1 (centres undefined)
> 95%

Tell me its Emax given CC(=O)N1CCc2c(c(N3CCCc4cc(-c5cnn(C)c5)c(C(F)F)cc43)nn2C2CCN(CC3CN(c4ccc5c(c4)C(=O)N(C4CCC(=O)NC4=O)C5=O)C3)CC2)C1 (centres undefined) as the entry.
> 95%

###

Each entry below carries its reported DC50.
# measured.on: Protein cereblon/Histone acetyltransferase p300 (Homo sapiens, UniProt Q09472+Q96SW2)
# run.description: PROTAC activity at p300/CRBN in human VCaP cells assessed as protein degradation incubated for 4 hrs by Western blot analysis
# Assay type: cell-based
# Sequence (Q09472 whole entry): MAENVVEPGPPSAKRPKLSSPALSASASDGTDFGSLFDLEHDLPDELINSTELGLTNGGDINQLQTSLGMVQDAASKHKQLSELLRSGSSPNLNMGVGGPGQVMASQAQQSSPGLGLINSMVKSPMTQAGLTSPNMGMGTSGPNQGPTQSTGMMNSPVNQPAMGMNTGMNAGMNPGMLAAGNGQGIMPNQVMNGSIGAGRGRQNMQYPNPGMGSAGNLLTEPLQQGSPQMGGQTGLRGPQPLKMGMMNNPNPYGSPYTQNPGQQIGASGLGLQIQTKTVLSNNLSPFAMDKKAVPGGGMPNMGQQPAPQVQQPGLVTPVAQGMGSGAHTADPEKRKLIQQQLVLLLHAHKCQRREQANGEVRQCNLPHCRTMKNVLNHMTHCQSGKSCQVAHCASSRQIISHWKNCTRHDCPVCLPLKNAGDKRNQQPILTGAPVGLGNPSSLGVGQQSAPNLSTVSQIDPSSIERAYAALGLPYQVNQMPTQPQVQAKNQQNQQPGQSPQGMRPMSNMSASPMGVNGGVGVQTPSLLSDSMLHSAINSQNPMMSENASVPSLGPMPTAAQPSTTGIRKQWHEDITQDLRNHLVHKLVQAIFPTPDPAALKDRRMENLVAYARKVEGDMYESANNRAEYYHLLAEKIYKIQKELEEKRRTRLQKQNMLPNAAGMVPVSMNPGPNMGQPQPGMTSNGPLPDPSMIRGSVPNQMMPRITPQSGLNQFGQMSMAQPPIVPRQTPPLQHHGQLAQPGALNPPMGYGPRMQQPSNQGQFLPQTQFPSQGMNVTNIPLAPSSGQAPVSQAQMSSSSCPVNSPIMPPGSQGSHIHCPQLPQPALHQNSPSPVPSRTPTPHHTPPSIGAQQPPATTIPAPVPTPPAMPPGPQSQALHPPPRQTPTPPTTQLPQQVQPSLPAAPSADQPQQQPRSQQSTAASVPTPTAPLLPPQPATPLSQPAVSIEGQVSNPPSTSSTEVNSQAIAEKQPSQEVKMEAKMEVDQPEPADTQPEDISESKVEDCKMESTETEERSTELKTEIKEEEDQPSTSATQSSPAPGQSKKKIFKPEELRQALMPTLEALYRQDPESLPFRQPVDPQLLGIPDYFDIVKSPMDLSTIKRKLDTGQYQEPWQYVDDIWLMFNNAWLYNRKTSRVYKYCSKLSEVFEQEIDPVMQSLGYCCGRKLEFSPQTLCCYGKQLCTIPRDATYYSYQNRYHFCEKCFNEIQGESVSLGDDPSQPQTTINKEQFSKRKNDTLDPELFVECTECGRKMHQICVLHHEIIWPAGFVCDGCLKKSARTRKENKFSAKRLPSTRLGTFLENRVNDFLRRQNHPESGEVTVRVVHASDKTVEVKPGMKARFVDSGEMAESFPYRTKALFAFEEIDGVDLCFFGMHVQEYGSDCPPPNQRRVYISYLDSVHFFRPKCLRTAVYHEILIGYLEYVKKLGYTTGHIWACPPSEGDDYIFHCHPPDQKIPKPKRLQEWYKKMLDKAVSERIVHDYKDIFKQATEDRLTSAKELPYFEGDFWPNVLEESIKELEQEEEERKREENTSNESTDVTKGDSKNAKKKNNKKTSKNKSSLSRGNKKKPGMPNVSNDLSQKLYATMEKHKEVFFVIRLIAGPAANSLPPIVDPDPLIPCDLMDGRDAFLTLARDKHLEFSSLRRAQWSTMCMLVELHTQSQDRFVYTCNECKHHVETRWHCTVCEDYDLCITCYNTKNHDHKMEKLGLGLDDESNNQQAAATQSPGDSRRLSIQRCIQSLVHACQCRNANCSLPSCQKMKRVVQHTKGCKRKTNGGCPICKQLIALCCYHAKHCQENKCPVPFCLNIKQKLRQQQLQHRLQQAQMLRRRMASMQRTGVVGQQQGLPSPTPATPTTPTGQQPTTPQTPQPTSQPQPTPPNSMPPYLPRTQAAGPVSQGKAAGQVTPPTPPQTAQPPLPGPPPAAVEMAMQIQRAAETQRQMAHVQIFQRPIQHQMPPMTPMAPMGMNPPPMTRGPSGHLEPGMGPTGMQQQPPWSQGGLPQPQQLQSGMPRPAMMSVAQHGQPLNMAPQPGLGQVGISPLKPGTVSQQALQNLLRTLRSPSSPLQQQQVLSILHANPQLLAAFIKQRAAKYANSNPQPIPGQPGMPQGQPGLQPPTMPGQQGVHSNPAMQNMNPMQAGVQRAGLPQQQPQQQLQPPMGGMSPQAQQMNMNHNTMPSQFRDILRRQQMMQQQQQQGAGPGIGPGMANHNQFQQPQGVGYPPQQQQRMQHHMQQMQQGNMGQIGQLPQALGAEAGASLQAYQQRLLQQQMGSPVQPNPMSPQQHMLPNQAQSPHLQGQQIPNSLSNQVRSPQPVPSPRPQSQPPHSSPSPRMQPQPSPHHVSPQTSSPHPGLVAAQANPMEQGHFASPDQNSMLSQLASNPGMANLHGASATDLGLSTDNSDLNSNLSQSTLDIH
# Sequence (Q96SW2 whole entry): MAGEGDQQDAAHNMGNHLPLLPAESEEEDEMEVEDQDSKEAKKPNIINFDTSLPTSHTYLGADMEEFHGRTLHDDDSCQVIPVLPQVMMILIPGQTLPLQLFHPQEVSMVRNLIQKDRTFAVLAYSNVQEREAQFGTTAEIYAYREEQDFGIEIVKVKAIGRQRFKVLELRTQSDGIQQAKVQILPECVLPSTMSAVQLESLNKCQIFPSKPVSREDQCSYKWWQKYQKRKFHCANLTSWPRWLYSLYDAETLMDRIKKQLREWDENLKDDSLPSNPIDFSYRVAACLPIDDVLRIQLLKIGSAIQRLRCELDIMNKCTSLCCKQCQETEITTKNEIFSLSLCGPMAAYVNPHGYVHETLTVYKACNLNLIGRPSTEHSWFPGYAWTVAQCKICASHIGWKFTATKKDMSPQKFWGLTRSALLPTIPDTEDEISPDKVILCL

compound: CC(=O)N1CCc2c(c(N3CCCc4cc(-c5cnn(C)c5)c(C(F)F)cc43)nn2C2CCN(C(=O)CCCCNc3cccc4c3C(=O)N(C3CCC(=O)NC3=O)C4=O)CC2)C1 (stereo not given)
DC50: 0.1 nM
//
compound: CC(=O)N1CCc2c(c(N3CCCc4cc(-c5cnn(C)c5)c(C(F)F)cc43)nn2C2CCN(C(=O)CCNc3cccc4c3C(=O)N(C3CCC(=O)NC3=O)C4=O)CC2)C1 (stereo not given)
DC50: 18 nM

Give a short answer stating reported DC50 for CC(=O)N1CCc2c(c(N3CCCc4cc(-c5cnn(C)c5)c(C(F)F)cc43)nn2[C@H]2CC[C@H](CN3CCN(c4ccc5c(c4)C(=O)N(C4CCC(=O)NC4=O)C5=O)CC3)CC2)C1 (stereo not given in full) .
0.2 nM

Using known records, supply DC50 for CC(=O)N1CCc2c(c(N3CCCc4cc(-c5cnn(C)c5)c(C(F)F)cc43)nn2C2CCN(C3CC4(C3)CN(c3ccc5c(c3)C(=O)N(C3CCC(=O)NC3=O)C5=O)C4)CC2)C1 (stereo not given)
0.4 nM

Please give the documented DC50 of CC(=O)N1CCc2c(c(N3CCCc4cc(-c5cnn(C)c5)c(C(F)F)cc43)nn2[C@H]2CC[C@H](CN3CCN(c4ccc5c(c4)CN(C4CCC(=O)NC4=O)C5=O)CC3)CC2)C1 (stereo not given in full)
< 0.1 nM

###

# measured.on: Protein cereblon/CREB-binding protein (Homo sapiens, UniProt Q92793+Q96SW2)
# run.description: PROTAC activity at CBP/CRBN in human VCaP cells assessed as maximal protein degradation at 1 uM incubated for 4 hrs by Western blot analysis relative to control
# Type: cell-based
property.label: Emax

molecule: CC(=O)N1CCc2c(c(N3CCCc4cc(-c5cnn(C)c5)c(C(F)F)cc43)nn2C2CCN(C3CC4(CCN(c5ccc6c(c5)C(=O)N(C5CCC(=O)NC5=O)C6=O)CC4)C3)CC2)C1 (stereo unspecified)
property.label: Emax
assay.result: > 95%
//
molecule: CC(=O)N1CCc2c(c(N3CCCc4cc(-c5cnn(C)c5)c(C(F)F)cc43)nn2[C@H]2CC[C@H](CN3CCN(c4ccc5c(c4)C(=O)N(C4CCC(=O)NC4=O)C5=O)CC3)CC2)C1 (stereo partly specified)
property.label: Emax
assay.result: > 95%

Provide only the value of recorded Emax for CC(=O)N1CCc2c(c(N3CCCc4cc(-c5cnn(C)c5)c(C(F)F)cc43)nn2C2CCN(C(=O)Nc3ccc4c(c3)C(=O)N(C3CCC(=O)NC3=O)C4=O)CC2)C1 (stereo unspecified)
> 95%

Provide Emax value for the following molecule: CC(=O)N1CCc2c(c(N3CCCc4cc(-c5cnn(C)c5)c(C(F)F)cc43)nn2C2CCN(C(=O)c3cccc4c3C(=O)N(C3CCC(=O)NC3=O)C4=O)CC2)C1 (stereo unspecified)
< 50%

Look up Emax of CC(=O)N1CCc2c(c(N3CCCc4cc(-c5cnn(C)c5)c(C(F)F)cc43)nn2C2CCN(C(=O)CCNc3cccc4c3C(=O)N(C3CCC(=O)NC3=O)C4=O)CC2)C1 (stereo unspecified) and report it.
88%

Give the measured Emax for CC(=O)N1CCc2c(c(N3CCCc4cc(-c5cnn(C)c5)c(C(F)F)cc43)nn2[C@H]2CC[C@H](CN3CCN(c4ccc5c(c4)CN(C4CCC(=O)NC4=O)C5=O)CC3)CC2)C1 (stereo partly specified)
> 95%

Please give the documented Emax of CC(=O)N1CCc2c(c(N3CCCc4cc(-c5cnn(C)c5)c(C(F)F)cc43)nn2C2CCN(C(=O)CCNc3ccc4c(c3)C(=O)N(C3CCC(=O)NC3=O)C4=O)CC2)C1 (stereo unspecified)
> 95%

Give the reported value of Emax for this record: CC(=O)N1CCc2c(c(N3CCCc4cc(-c5cnn(C)c5)c(C(F)F)cc43)nn2C2CCN(C(=O)CCCNc3cccc4c3C(=O)N(C3CCC(=O)NC3=O)C4=O)CC2)C1 (stereo unspecified)
92%

Provide only the value of recorded Emax for CC(=O)N1CCc2c(c(N3CCCc4cc(-c5cnn(C)c5)c(C(F)F)cc43)nn2C2CCN(C(=O)c3ccc4c(c3)C(=O)N(C3CCC(=O)NC3=O)C4=O)CC2)C1 (stereo unspecified)
< 50%

Dear colleague, please send me the reported Emax for CC(=O)N1CCc2c(c(N3CCCc4cc(-c5cnn(C)c5)c(C(F)F)cc43)nn2C2CCN(C3CCN(c4ccc5c(c4)C(=O)N(C4CCC(=O)NC4=O)C5=O)CC3)CC2)C1 (stereo unspecified) when you can.
> 95%

Could you please provide reported Emax for CC(=O)N1CCc2c(c(N3CCCc4cc(-c5cnn(C)c5)c(C(F)F)cc43)nn2C2CCN(C3CC4(C3)CN(c3ccc5c(c3)C(=O)N(C3CCC(=O)NC3=O)C5=O)C4)CC2)C1 (stereo unspecified) ? Thanks!
> 95%
